The measurements presented in this section are drawn from PubChem BioAssay.

test system: Wnt5a (protein binding on small-molecule microarray); assay: Wnt5a binders on small-molecule microarray, primary screen, biophysical, 635/667 nm fluorescence (AID 1142); conditions: 635 nm fluorescence, higher = more signal;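 further: fluorescence read at 667 nm with signal to noise per printed feature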
property: composite z-score
Just the number, please, no unit attached.

C=CCN1C(=O)[C@@]2(O[C@@H](CCn3cc(CCO)nn3)[C@H]([Si](C)(C)c3ccc(OC)cc3)[C@H]2C)c2cc(NC(=O)c3ccc(OC)cc3)ccc21 = 0.315

Enquiry: What value of measured composite z-score is listed for CCCCC(=C=CC[C@H](O)c1cccc(OCCO)c1)CCO ?
Return: -0.0668

Enquiry: Follow-up entry: CC(C)N1CC=CC23O[C@@H]4/C=C\CCCOC(=O)C4[C@H]2C(=O)N(CCCO)[C@@H]3C1=O (stereo partly drawn)
Return: -0.059
